# target-or-system: human topoisomerase IIα (Homo sapiens, UniProt P11388)
# Sequence (P11388 whole entry): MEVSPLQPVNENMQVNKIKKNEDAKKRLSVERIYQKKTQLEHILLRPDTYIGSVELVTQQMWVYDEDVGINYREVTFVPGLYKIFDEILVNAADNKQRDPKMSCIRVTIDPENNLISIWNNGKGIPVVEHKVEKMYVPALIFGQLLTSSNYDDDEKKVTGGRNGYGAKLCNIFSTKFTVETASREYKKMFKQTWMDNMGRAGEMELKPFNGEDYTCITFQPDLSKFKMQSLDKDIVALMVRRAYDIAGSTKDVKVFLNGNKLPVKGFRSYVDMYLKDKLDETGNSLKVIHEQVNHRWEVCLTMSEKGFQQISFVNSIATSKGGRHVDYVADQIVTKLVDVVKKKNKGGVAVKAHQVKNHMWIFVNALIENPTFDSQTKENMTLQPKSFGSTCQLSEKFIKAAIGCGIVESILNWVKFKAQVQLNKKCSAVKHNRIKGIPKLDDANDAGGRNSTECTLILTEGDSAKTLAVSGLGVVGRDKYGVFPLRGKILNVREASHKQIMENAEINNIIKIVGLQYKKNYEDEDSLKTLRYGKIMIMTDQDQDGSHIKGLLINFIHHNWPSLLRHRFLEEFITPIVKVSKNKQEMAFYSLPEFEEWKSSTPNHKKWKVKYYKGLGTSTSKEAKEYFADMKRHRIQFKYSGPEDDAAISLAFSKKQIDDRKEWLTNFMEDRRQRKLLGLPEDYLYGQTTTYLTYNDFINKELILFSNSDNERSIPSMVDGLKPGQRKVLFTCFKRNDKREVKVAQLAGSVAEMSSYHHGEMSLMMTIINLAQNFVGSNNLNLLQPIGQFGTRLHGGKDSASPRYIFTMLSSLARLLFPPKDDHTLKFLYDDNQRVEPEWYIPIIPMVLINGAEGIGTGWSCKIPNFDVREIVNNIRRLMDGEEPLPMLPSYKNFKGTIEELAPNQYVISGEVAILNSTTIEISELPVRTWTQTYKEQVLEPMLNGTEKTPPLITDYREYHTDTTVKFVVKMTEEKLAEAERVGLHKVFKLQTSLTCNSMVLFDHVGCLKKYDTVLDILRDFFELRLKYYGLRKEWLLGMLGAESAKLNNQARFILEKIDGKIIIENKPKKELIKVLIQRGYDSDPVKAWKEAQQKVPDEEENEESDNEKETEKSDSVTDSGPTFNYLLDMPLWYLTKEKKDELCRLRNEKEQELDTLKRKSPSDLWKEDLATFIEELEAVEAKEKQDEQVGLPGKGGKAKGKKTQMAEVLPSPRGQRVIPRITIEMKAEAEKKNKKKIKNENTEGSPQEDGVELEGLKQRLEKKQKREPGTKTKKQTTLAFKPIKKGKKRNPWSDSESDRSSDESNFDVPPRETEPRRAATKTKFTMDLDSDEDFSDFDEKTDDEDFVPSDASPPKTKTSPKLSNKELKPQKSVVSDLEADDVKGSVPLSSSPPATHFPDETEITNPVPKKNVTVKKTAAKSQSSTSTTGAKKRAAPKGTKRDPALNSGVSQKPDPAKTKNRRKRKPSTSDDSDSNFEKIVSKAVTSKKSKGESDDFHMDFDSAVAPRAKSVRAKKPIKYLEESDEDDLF
# test-details: competition against DNA cleavage induced by […] 8-methyl-3′-
pIC50: −log10 of the molar value.
attribute-measured: pIC50

Could you please provide reported pIC50 for NCC1CCN(c2cc3c(cc2F)c(=O)c(C(=O)O)cn3C2CC2)C1 (stereo not shown) [8-H-3′-(AM)P-FQ] ? Thanks!
~4.30
